Items are presented alongside their recorded pIC50.
# ASSAY TARGET: histidine-tagged recombinant human TrkA, cytoplasmic domain (Homo sapiens (Human))
# ASSAY REMARKS: TrkA ELISA Assay
# CONDITION SET: 2.5 nM TrkA, 500 μM ATP, 25 minutes; read-out: TrkA Elisa Enzyme IC50
Bear in mind: pIC50 is minus log10 of a mol/L concentration; give just that figure.

[Q] Which measured pIC50 value corresponds to `COc1ccc(NC(=O)Nc2cnn3ccc(N4CCC[C@@H]4c4cc(F)ccc4F)nc23)cc1` ?
[A] 8.32

[Q] Which measured pIC50 value corresponds to `CC(C)(C)C(=O)Nc1cnn2ccc(N3CCC[C@@H]3c3cc(F)ccc3F)nc12` ?
[A] 8.20

[Q] Which measured pIC50 value corresponds to `CC(C)(C(=O)Nc1cnn2ccc(N3CCC[C@@H]3c3cc(F)ccc3F)nc12)n1cncn1` ?
[A] 7.84

[Q] Which measured pIC50 value corresponds to `O=C(Nc1cnn2ccc(N3CCC[C@@H]3c3cccc(F)c3)nc12)c1ccccn1` ?
[A] 8.40

[Q] Which measured pIC50 value corresponds to `CC1(O)CN(C(=O)Nc2cnn3ccc(N4CCC[C@@H]4c4cc(F)ccc4F)nc23)C1` ?
[A] 7.71

Others:
[Q] Which measured pIC50 value corresponds to `O=C(O)C(=O)Nc1cnn2ccc(N3CCC[C@@H]3c3cc(F)ccc3F)nc12` ?
[A] 8.33

[Q] Which measured pIC50 value corresponds to `CC(C)(C)OC(=O)N1CCC(C)(C(=O)Nc2cnn3ccc(N4CCC[C@@H]4c4cc(F)ccc4Cl)nc23)CC1` ?
[A] 7.82

[Q] Which measured pIC50 value corresponds to `CN1CCN(C(=O)Nc2cnn3ccc(N4CCC[C@@H]4c4cc(F)ccc4F)nc23)CC1` ?
[A] 7.24

###

# ASSAY TARGET: histidine-tagged recombinant human TrkA, cytoplasmic domain (Homo sapiens (Human), UniProt P04629)
# Sequence (P04629 440-796): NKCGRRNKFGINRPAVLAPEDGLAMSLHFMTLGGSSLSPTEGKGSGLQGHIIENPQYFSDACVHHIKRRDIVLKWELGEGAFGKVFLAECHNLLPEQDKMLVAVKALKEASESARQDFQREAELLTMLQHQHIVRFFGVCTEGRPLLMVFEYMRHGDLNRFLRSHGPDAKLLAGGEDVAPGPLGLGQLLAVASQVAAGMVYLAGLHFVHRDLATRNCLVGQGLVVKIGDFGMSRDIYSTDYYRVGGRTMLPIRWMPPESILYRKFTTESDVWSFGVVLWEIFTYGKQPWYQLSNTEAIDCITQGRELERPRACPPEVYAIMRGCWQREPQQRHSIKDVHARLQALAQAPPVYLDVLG
# ASSAY REMARKS: TrkA ELISA Assay
# CONDITION SET: 2.5 nM TrkA, 500 μM ATP, 25 minutes; read-out: TrkA Elisa Enzyme IC50
# Description: An enzyme-linked immunosorbant assay (ELISA) was used to assess TrkA kinase activity in the presence of inhibitors. […] The phosphorylated reaction product was detected using 0.2 μg/mL of a phosphotyrosine specific monoclonal antibody (clone PY20) conjugated to horseradish peroxidase in conjunction with the TMB Peroxidase Substrate System (KPL). After the addition of 1M phosphoric acid, the chromogenic substrate color intensity was quantitated via absorbance at 450 nm. […]
Threshold 90 nM. IC50 below it: True. IC50 at it or above: False.

[Q] Here's an entry: O=C(Nc1cnn2ccc(N3CCC[C@@H]3c3cc(F)ccc3F)nc12)[C@H]1CC[C@H](O)C1 [Example 95] . Is its IC50 below 90 nM?
[A] True

Others:
[Q] Here's an entry: CC1CN(C(=O)Nc2cnn3ccc(N4CCC[C@@H]4c4cc(F)ccc4F)nc23)CC(C)N1 (some centres unmarked) [Example 29] . Is its IC50 below 90 nM?
[A] False

[Q] Here's an entry: O=C(Nc1cnn2ccc(N3CCC[C@@H]3c3cc(F)ccc3C(F)(F)F)nc12)N1CC[C@H](O)C1 [Example 84] . Is its IC50 below 90 nM?
[A] True

[Q] Here's an entry: Cc1ccc(C(=O)Nc2cnn3ccc(N4CCC[C@@H]4c4cccc(F)c4)nc23)cn1 [Example 78] . Is its IC50 below 90 nM?
[A] True
